# TARGET_OF_ASSAY: UniProtKB Q07889
# Sequence (Q07889 1-1333): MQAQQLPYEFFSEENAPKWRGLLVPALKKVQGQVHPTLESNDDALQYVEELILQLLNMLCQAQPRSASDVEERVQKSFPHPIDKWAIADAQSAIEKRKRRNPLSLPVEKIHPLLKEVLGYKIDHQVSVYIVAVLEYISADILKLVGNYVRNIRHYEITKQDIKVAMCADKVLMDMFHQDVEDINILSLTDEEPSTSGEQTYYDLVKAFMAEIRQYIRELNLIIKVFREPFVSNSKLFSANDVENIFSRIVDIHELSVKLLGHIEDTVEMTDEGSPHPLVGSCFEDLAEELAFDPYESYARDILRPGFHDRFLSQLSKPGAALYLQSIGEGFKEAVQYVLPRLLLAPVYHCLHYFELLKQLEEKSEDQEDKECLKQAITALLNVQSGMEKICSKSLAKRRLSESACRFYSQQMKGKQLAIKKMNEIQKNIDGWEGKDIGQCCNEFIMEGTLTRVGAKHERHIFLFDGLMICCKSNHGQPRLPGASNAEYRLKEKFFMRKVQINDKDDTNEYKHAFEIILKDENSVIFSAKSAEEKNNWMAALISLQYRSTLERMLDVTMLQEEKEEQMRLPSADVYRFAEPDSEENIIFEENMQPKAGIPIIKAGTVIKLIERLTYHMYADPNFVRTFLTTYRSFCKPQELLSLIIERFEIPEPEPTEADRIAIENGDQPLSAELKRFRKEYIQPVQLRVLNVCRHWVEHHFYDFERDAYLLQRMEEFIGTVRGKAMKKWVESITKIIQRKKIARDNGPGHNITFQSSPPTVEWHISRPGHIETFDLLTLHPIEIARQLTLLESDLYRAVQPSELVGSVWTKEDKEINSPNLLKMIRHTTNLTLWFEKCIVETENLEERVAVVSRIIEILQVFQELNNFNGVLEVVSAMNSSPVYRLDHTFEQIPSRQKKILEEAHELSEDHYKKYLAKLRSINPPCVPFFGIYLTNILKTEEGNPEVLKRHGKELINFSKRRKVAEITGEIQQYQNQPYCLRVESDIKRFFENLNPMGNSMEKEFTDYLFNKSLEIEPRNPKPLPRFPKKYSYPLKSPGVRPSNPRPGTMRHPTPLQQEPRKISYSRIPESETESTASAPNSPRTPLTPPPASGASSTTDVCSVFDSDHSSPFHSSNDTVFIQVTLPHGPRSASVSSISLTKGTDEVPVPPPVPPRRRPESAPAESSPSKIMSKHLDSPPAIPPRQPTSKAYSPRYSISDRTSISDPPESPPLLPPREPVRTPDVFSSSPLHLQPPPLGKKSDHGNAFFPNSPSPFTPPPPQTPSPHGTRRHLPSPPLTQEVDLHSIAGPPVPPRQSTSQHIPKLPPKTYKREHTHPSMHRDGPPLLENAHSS
ASSAY_METRIC: pIC50
Please treat pIC50 as minus the base-10 logarithm of the molar concentration.

Study these solved cases before continuing.
C[C@@H](Nc1nnc(N(C)C)c2cc(=O)n(C3CC3)cc12)c1cccc(C(F)F)c1F; 8.04
C[C@@H](Nc1nnc(N2CCN(C3CCCC3)CC2)c2cc(=O)n(N3CCOCC3)cc12)c1cccc(C(F)F)c1F; 8.39
C[C@@H](Nc1nnc(N2CCN(C3CCCC3)CC2)c2cc(=O)n(C)cc12)c1cccc(C(F)F)c1F; 7.90
Cc1c([C@@H](C)Nc2nnc(N3CCN(C4CC4)CC3)c3cc(=O)n(C4(C)CC4)cc23)cccc1C(F)(F)F; 7.99
C[C@@H](Nc1nnc(N2CCCC2)c2cc(=O)n(C3(C)CC3)cc12)c1cccc(C(F)F)c1F; 8.33
C[C@@H](Nc1nnc(N2CC(CO)C2)c2cc(=O)n(C3(C)CC3)cc12)c1cccc(C(F)(F)CO)c1; 8.35

Kindly review the next molecule as well.
Entry C[C@@H](Nc1nnc(N2CC3(CC(O)C3)C2)c2cc(=O)n(C3(C)CC3)cc12)c1cccc(C(F)F)c1F has what pIC50?
8.43

The reported numbers originate from patent EP4722213A1.
